These data points were gathered from the DeepSol protein solubility set.

# assay.procedure: soluble on expression in E. coli; label from the status in PepcDB or PDB records
experimental.readout: soluble on expression in E. coli

Completed entries (count: 7):
sequence: MLNRYYRFAVEKDDPSEAPESGDKPDSQPQKKS
experimental.readout: soluble on expression in E. coli
observed.value: not soluble
--
sequence: MSLTRKKEDPGHSGRADRAARLSKASTHHAQHRQQPQRTRHERPRHAGHVAGKLYQLEVSEALISSVTDAVLDNVHAWQSRPLAAQRAENQRLIPD
experimental.readout: soluble on expression in E. coli
observed.value: soluble
--
sequence: MNPILAMLKENNISNEQINELFQTLTQNPLAAMATLAQLGLPQDKMQMVLAQVMQNPALIKQAVEELGLDFAKVEAAKAKLQQ
experimental.readout: soluble on expression in E. coli
observed.value: not soluble
--
sequence: MERLFKHICLVARHSKPGITPALMQLANHLAAGGATVLIDKESVTPDEANGYPLIDRTDMGKLADLCIVLGGDGTMLSIARLLAPYRVPLVGINQGRLGFMTDIPLHEMLDSVDAILHGKFVPEDRILLQAAVVREDAEVASALAFNDVVFSRGAVGSMIEFEVFIDNQFVYSQRSDGLIVSTPTGSTAYSLASGGPILHPTLQAIALVPICPQSLSNRPIAVNDSCEVEFMLTRGLDARVHFDGQLHCDLMEMDRVLIRRYRNPLRILHPEGYNYYDMLRHKLHWGERLILEHHHHHH
experimental.readout: soluble on expression in E. coli
observed.value: soluble
--
sequence: MTDKENFYSGFFLGRLPGSFDSRFLIKVACFQPGKEERNVFELTTDTKREEDYGEMVHFWVDKGPLQNKSFVRFEENYETFFIHENKMFDRIVHTDKDFYVGVNDLPDSDIYIHPDLGKMIDTRSIVTPGKKYNFITFEVKQNENNSFDIEIVGGEVQGKEKNSEEPSAKEKIIQKMEQVHEVMKVEYEYNKNEETANWDVIGHLKLIKFYDKDLTSGLRPVLRLMDNRHVALFKKQRETMPIKMIKVIEVDGIWKDDVNFVPQEGTLLPTDHDEKTVVLLGNDYRHKFERLFKREDVFRLESNNTLTHLKFWQYGLEKI
experimental.readout: soluble on expression in E. coli
observed.value: not soluble
--
sequence: RYWKPEFHPDNSKSIEEWTDEIHTTLQKIMPEVKSENETAELFLSGGVDSSYILAMSDIEKTGSCGYEEERFDESKLAQQTANILGCKNSRYIITPEEYFASVPYVMYHMEQPTGDASAIVFAIGCKAAAENTNICYSGEGADEFFGGYNIYHKAECYGENLKTFYIGNTNIMNEGEKRKILKKYNPDVLPIEVVKGIYEETEELDTLTNMSNVDIQIWLEGDIYFNIDKMSTAVGLEVRMPLTDTRIFDIASRIPSEYKVKGKENKIAFRTAASKTLPEEIAFRNKLGFIVPIRIWMADDQYNKDIRDKFNSEIADKFFNIDEINEIFNDYISGNSDNWRKIWMIYTFLVWYEIYFVKC
experimental.readout: soluble on expression in E. coli
observed.value: not soluble
--
sequence: MGSDKIHHHHHHMRCSPCRMQQAHTPPHSAKSIKHDVKRRIILDAARRMFAHDGAGSVSMRNLAREVGCSAAVLYRYFGSRESILWELRCEGIVLLNDALMGAADAADPLLRLQQLGRAYVSFGIDNLEYYELMFRTPFYEFDAGSLPDGLPDDALVLLHSTAAECLELGYFAGSDVTTVVSSMWSLVHGLVSLILNGRAPLMMGALDTHAMIDRVPDFIAGLARAARGGI
experimental.readout: soluble on expression in E. coli
observed.value: not soluble

Note: attention shifts to another entry.
# input Which soluble on expression in E. coli is reported for this sequence? QAVVTQESALTTSPGETVTLTCRSSTGAVTTSNYANWVQEKPDHLFTGLIGGTNKRAPGVPARFSGSLIGDKAALTITGAQTEDEAIYFCALWDSNHLVFGGGTKLTVLGQPKSSPSVTLFPPSSEELETNKATLVCTITDFYPGVVTVDWKVDGTPVTQGMETTQPSKQSNNKYMASSYLTLTARAWERHSSYSCQVTHEGHTVEKSLSPADC
# output soluble
